experiment: activity coefficient (dimensionless); of the first substance listed, at infinite dilution; xn = mol fraction of the nth substance listed; conditions: 378.15 K; 101.33 kPa; Liquid; Chromatography; x1 = 0
Each entry falls in a class defined on activity coefficient; the bands are low bracket (below 0.9), middle bracket (0.9 to below 4), high bracket (4 or more)

A selection of reference data follows.
compound	class_name
CCCCO [butan-1-ol] + CCCC[P+](CCCC)(CCCC)CCCC.O=S(=O)([N-]S(=O)(=O)C(F)(F)F)C(F)(F)F	middle bracket
CCCCCC [hexane] + CCCC[P+](CCCC)(CCCC)CCCC.O=S(=O)([N-]S(=O)(=O)C(F)(F)F)C(F)(F)F	high bracket
CCCC(C)=O [pentan-2-one] + CCCC[P+](CCCC)(CCCC)CCCC.O=S(=O)([N-]S(=O)(=O)C(F)(F)F)C(F)(F)F	low bracket
CCOC(C)(C)C [2-ethoxy-2-methylpropane] + CCCC[P+](CCCC)(CCCC)CCCC.O=S(=O)([N-]S(=O)(=O)C(F)(F)F)C(F)(F)F	middle bracket

Query: Band assignment needed for CCCCCCC [heptane] + CCCC[P+](CCCC)(CCCC)CCCC.O=S(=O)([N-]S(=O)(=O)C(F)(F)F)C(F)(F)F please.
Reply: high bracket

Query: Band assignment needed for CC#N [acetonitrile] + CCCC[P+](CCCC)(CCCC)CCCC.O=S(=O)([N-]S(=O)(=O)C(F)(F)F)C(F)(F)F please.
Reply: low bracket

Query: Band assignment needed for C#CCCCC [1-hexyne] + CCCC[P+](CCCC)(CCCC)CCCC.O=S(=O)([N-]S(=O)(=O)C(F)(F)F)C(F)(F)F please.
Reply: middle bracket

Reference source: the NIST ThermoML archive (doi:10.1016/j.fluid.2018.07.028)
